These measurements were taken from the supplement of paper PMC9112550.

Test system: Escherichia coli TOP10
Experiment: shrunken log2 fold change of peptide-encoding DNA abundance (4.5 h post-induction vs induction); higher = less antimicrobial activity (less host growth inhibition)
Conditions: time post-induction: 4.5 h; library: site-saturation at positions 5, 18, 19, 20
QUANTITY_MEASURED: shrunken log2 fold change

>>> number("RRIRQRPPRLPRPRPRPTCLPRP")
-0.108
>>> number("RRIRERPPRLPRPRPRPQRYPRP")
-0.222
>>> number("RRIRKRPPRLPRPRPRPQIYPRP")
-0.159
>>> number("RRIRNRPPRLPRPRPRPVQCPRP")
-0.0226
>>> number("RRIRIRPPRLPRPRPRPHVDPRP")
-0.294
>>> number("RRIRCRPPRLPRPRPRPTWSPRP")
0.346
>>> number("RRIRERPPRLPRPRPRPRGTPRP")
0.0483
>>> number("RRIRYRPPRLPRPRPRPCIQPRP")
-0.172
>>> number("RRIRYRPPRLPRPRPRPYYEPRP")
-0.28
>>> number("RRIRYRPPRLPRPRPRPTHDPRP")
0.032
>>> number("RRIRVRPPRLPRPRPRPVITPRP")
-0.207
>>> number("RRIRIRPPRLPRPRPRPMIHPRP")
-0.363
>>> number("RRIRTRPPRLPRPRPRPEICPRP")
-0.0438
>>> number("RRIRARPPRLPRPRPRPPPAPRP")
1.25
>>> number("RRIRQRPPRLPRPRPRPLYWPRP")
-0.11
>>> number("RRIRQRPPRLPRPRPRPLWMPRP")
-0.165
>>> number("RRIRRRPPRLPRPRPRPLAAPRP")
0.874
>>> number("RRIRKRPPRLPRPRPRPQAIPRP")
-0.0244
>>> number("RRIRPRPPRLPRPRPRPCFLPRP")
-0.382
>>> number("RRIRDRPPRLPRPRPRPCAPPRP")
-0.0226
>>> number("RRIRLRPPRLPRPRPRPCRMPRP")
-0.0411
>>> number("RRIRPRPPRLPRPRPRPSWQPRP")
-0.0441
>>> number("RRIRNRPPRLPRPRPRPRFEPRP")
0.108
>>> number("RRIRNRPPRLPRPRPRPNWLPRP")
0.0494
>>> number("RRIRPRPPRLPRPRPRPAKHPRP")
-0.023
>>> number("RRIRWRPPRLPRPRPRPTRHPRP")
0.37
>>> number("RRIRIRPPRLPRPRPRPHHLPRP")
-0.221
>>> number("RRIRKRPPRLPRPRPRPKKYPRP")
-0.149
>>> number("RRIRDRPPRLPRPRPRPSHTPRP")
-0.436
>>> number("RRIRFRPPRLPRPRPRPAMFPRP")
-0.292
>>> number("RRIRERPPRLPRPRPRPGSEPRP")
-0.0924
>>> number("RRIRERPPRLPRPRPRPLLRPRP")
-0.152
>>> number("RRIRQRPPRLPRPRPRPHREPRP")
-0.152
>>> number("RRIRARPPRLPRPRPRPLIKPRP")
0.0844
>>> number("RRIRLRPPRLPRPRPRPCYCPRP")
-0.219
>>> number("RRIRERPPRLPRPRPRPNIRPRP")
-0.273
>>> number("RRIRPRPPRLPRPRPRPFKLPRP")
-0.00835
>>> number("RRIRMRPPRLPRPRPRPIRWPRP")
0.632
>>> number("RRIRQRPPRLPRPRPRPCCWPRP")
0.0955
>>> number("RRIRNRPPRLPRPRPRPNHWPRP")
-0.125
>>> number("RRIRSRPPRLPRPRPRPWWWPRP")
0.0716
>>> number("RRIRQRPPRLPRPRPRPELYPRP")
-0.113
>>> number("RRIRGRPPRLPRPRPRPILMPRP")
-0.05
>>> number("RRIRFRPPRLPRPRPRPHDCPRP")
-0.0297
>>> number("RRIRNRPPRLPRPRPRPLYRPRP")
-0.332
>>> number("RRIRIRPPRLPRPRPRPWATPRP")
0.16
>>> number("RRIRNRPPRLPRPRPRPCSQPRP")
-0.0135
>>> number("RRIRLRPPRLPRPRPRPQKLPRP")
-0.17
>>> number("RRIRLRPPRLPRPRPRPTTPPRP")
0.138
>>> number("RRIRERPPRLPRPRPRPNAWPRP")
0.113
>>> number("RRIRFRPPRLPRPRPRPYKKPRP")
-0.415
>>> number("RRIRIRPPRLPRPRPRPQLVPRP")
-0.163
>>> number("RRIRFRPPRLPRPRPRPPNDPRP")
0.273
>>> number("RRIRHRPPRLPRPRPRPDHIPRP")
-0.336
>>> number("RRIRGRPPRLPRPRPRPCIQPRP")
-0.0256
>>> number("RRIRKRPPRLPRPRPRPWNQPRP")
-0.0169
>>> number("RRIRDRPPRLPRPRPRPEMFPRP")
-0.0156
>>> number("RRIRRRPPRLPRPRPRPERAPRP")
0.79
>>> number("RRIRGRPPRLPRPRPRPTYMPRP")
0.0228
>>> number("RRIRKRPPRLPRPRPRPGAEPRP")
1.26
>>> number("RRIRARPPRLPRPRPRPANYPRP")
-0.122
>>> number("RRIRHRPPRLPRPRPRPRIGPRP")
0.172
>>> number("RRIRWRPPRLPRPRPRPIFQPRP")
-0.103

###

Test system: Escherichia coli TOP10;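 note: peptides expressed intracellularly from a pBAD plasmid library in pooled LB shake-flask culture, induced with 0.3% L-arabinose, DNA abundance read by NGS, three biological replicates, DESeq2 with apeglm shrinkage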
Assay: shrunken log2 fold change of peptide-encoding DNA abundance (4.5 h post-induction vs induction); higher = less antimicrobial activity (less host growth inhibition)
Settings: time post-induction: 4.5 h; library: site-saturation at positions 5, 18, 19, 20
QUANTITY_MEASURED: shrunken log2 fold change

>>> number("RRIRFRPPRLPRPRPRPCRIPRP")
-2.21
>>> number("RRIRHRPPRLPRPRPRPWLNPRP")
-0.0017
>>> number("RRIRLRPPRLPRPRPRPCICPRP")
-0.346
>>> number("RRIRRRPPRLPRPRPRPMVGPRP")
0.397
>>> number("RRIRNRPPRLPRPRPRPPMNPRP")
-0.0606
>>> number("RRIRIRPPRLPRPRPRPVGFPRP")
-0.182
>>> number("RRIRFRPPRLPRPRPRPLWDPRP")
-0.119
>>> number("RRIRRRPPRLPRPRPRPDCGPRP")
0.16
>>> number("RRIRTRPPRLPRPRPRPKPTPRP")
0.0943
>>> number("RRIRMRPPRLPRPRPRPNKWPRP")
0.079
>>> number("RRIRKRPPRLPRPRPRPHSVPRP")
0.11
>>> number("RRIRKRPPRLPRPRPRPVHDPRP")
0.0707
>>> number("RRIRMRPPRLPRPRPRPVSTPRP")
1.96
>>> number("RRIRKRPPRLPRPRPRPEQEPRP")
0.408
>>> number("RRIRWRPPRLPRPRPRPPKSPRP")
0.789
>>> number("RRIRDRPPRLPRPRPRPQGSPRP")
-0.0152
>>> number("RRIRYRPPRLPRPRPRPNEAPRP")
-0.017
>>> number("RRIRCRPPRLPRPRPRPRSIPRP")
-0.0603
>>> number("RRIRKRPPRLPRPRPRPSTFPRP")
-0.00863
>>> number("RRIRPRPPRLPRPRPRPWAAPRP")
0.126
>>> number("RRIRTRPPRLPRPRPRPKNIPRP")
-0.627
>>> number("RRIRPRPPRLPRPRPRPELTPRP")
0.537
>>> number("RRIRFRPPRLPRPRPRPVQRPRP")
-0.072
>>> number("RRIRYRPPRLPRPRPRPDTGPRP")
-0.808
>>> number("RRIRRRPPRLPRPRPRPTEGPRP")
0.18
>>> number("RRIRYRPPRLPRPRPRPRAGPRP")
0.461
>>> number("RRIRTRPPRLPRPRPRPQFCPRP")
-0.486
>>> number("RRIRNRPPRLPRPRPRPTPCPRP")
0.043
>>> number("RRIRNRPPRLPRPRPRPELYPRP")
0.23
>>> number("RRIRNRPPRLPRPRPRPENPPRP")
0.0192
>>> number("RRIRNRPPRLPRPRPRPMTMPRP")
0.0125
>>> number("RRIRRRPPRLPRPRPRPVMCPRP")
0.0382
>>> number("RRIRDRPPRLPRPRPRPLAIPRP")
0.0447
>>> number("RRIRERPPRLPRPRPRPVWEPRP")
0.239
>>> number("RRIRMRPPRLPRPRPRPWCDPRP")
0.274
>>> number("RRIRVRPPRLPRPRPRPDKGPRP")
-0.591
>>> number("RRIRDRPPRLPRPRPRPFMMPRP")
-0.265
>>> number("RRIRQRPPRLPRPRPRPHYMPRP")
-0.474
>>> number("RRIRDRPPRLPRPRPRPLPLPRP")
-0.0937
>>> number("RRIRCRPPRLPRPRPRPIMPPRP")
-0.11
>>> number("RRIRPRPPRLPRPRPRPYICPRP")
-0.149
>>> number("RRIRPRPPRLPRPRPRPKATPRP")
0.463
>>> number("RRIRFRPPRLPRPRPRPCPSPRP")
-0.0894
>>> number("RRIRDRPPRLPRPRPRPGVIPRP")
-0.00423
>>> number("RRIRIRPPRLPRPRPRPYFQPRP")
-0.511
>>> number("RRIRHRPPRLPRPRPRPSSIPRP")
-0.762
>>> number("RRIRPRPPRLPRPRPRPEDMPRP")
-0.927
>>> number("RRIRNRPPRLPRPRPRPIQPPRP")
-0.213
>>> number("RRIRVRPPRLPRPRPRPHQDPRP")
-0.264
>>> number("RRIRFRPPRLPRPRPRPATWPRP")
0.317
>>> number("RRIRIRPPRLPRPRPRPFHHPRP")
0.0886
>>> number("RRIRNRPPRLPRPRPRPMTTPRP")
-0.174
>>> number("RRIRDRPPRLPRPRPRPDTTPRP")
0.345
>>> number("RRIRYRPPRLPRPRPRPCVKPRP")
-0.0312
>>> number("RRIRRRPPRLPRPRPRPPDDPRP")
0.743
>>> number("RRIRCRPPRLPRPRPRPKYHPRP")
-0.743
>>> number("RRIRGRPPRLPRPRPRPTQKPRP")
1.22
>>> number("RRIRHRPPRLPRPRPRPYDKPRP")
-0.961
>>> number("RRIRPRPPRLPRPRPRPAKLPRP")
0.0398
>>> number("RRIRRRPPRLPRPRPRPMRVPRP")
0.93
>>> number("RRIRTRPPRLPRPRPRPLQFPRP")
-0.497
>>> number("RRIRLRPPRLPRPRPRPNIWPRP")
-0.0307
>>> number("RRIRWRPPRLPRPRPRPIQTPRP")
-0.0178
